Provide the reported pKb of each item.
biological target: Melanin-concentrating hormone receptor 1 (Homo sapiens); settings: HEK293
Description: Antagonist activity at human MCH1 receptor expressed in HEK cells after 45 mins by [35S]GTP-gamma-S binding assay
Numbers only.

Please look at the items below and tell me pKb for each one, in order.
1. CCC(CO)(CO)NC(=O)N(CCC1CCN(Cc2ccc(C)cc2)CC1)Cc1ccc(-c2ccccc2OC)cc1
2. CCC(CO)(CO)NC(=O)N(CCC1CCN(Cc2ccc(C)cc2)CC1)Cc1ccc(-c2ccc(OC)cc2)cc1
3. COc1ccccc1-c1ccc(CNC(=O)NC2CCN(Cc3ccc(C)cc3)CC2)cc1
4. Cc1ccc(CN2CCC(NC(=O)NCc3ccc(-c4cccc(C#N)c4)cc3)CC2)cc1

Result:
1: 6.65; 2: 6.93; 3: 6.19; 4: 6.38

Please look at the items below and tell me pKb for each one, in order.
1. COc1ccc(-c2ccc(CN(CCC3CCN(Cc4ccc(C)cc4)CC3)C(=O)NC(C)(C)CO)cc2)cc1
2. Cc1ccc(CN2CCC(CCN(Cc3ccc(-c4cccc(C#N)c4)cc3)C(=O)NC(C)C)CC2)cc1
3. COc1ccccc1-c1ccc(CN(CCC2CCN(Cc3ccc(C)cc3)CC2)C(=O)NC(C)(C)CO)cc1

Result:
[7.06, 6, 6.88]

* * *

molecular target: Melanin-concentrating hormone receptor 1 (Homo sapiens, UniProt Q99705); test: Displacement of [3H]SNAP from human MCH1 receptor expressed in HEK cells; type: cell-based, HEK293; settings: read-out: Ki
Sequence (Q99705 whole entry): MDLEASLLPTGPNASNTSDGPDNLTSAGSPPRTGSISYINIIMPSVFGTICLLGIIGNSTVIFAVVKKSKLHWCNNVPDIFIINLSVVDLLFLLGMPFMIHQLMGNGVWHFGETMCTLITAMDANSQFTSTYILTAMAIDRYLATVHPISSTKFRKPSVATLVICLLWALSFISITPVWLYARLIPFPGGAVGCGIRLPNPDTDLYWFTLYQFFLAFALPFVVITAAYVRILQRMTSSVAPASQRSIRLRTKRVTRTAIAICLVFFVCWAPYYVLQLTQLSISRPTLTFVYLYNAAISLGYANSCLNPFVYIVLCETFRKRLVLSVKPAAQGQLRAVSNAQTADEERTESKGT
READOUT: Ki (nM)
One number for each entry, in nM.

# example entries with known answers
>>> observed_result("Cc1ccc(CN2CCC(CCN(Cc3ccc(-c4ccc(F)cc4)cc3)C(=O)NC(C)C)CC2)cc1")
314
>>> observed_result("CCC(CO)(CO)NC(=O)N(CCC1CCN(Cc2ccc(C)cc2)CC1)Cc1ccc(-c2ccccc2OC)cc1")
167
>>> observed_result("Cc1ccc(CN2CCC(CCN(Cc3ccc(-c4ccccc4)cc3)C(=O)NC(C)C)CC2)cc1")
258
>>> observed_result("CC(=O)OCC(C)(C)NC(=O)N(CCC1CCN(Cc2ccc(C)cc2)CC1)Cc1ccc(-c2cccc(C#N)c2)cc1")
254
>>> observed_result("CCC(CO)(CO)NC(=O)N(CCC1CCN(Cc2ccc(C)cc2)CC1)Cc1ccc(-c2ccc(OC)cc2)cc1")
143

Please look at the items below and tell me Ki for each one, in order.
1. CCC(COC(C)=O)(COC(C)=O)NC(=O)N(CCC1CCN(Cc2ccc(C)cc2)CC1)Cc1ccc(-c2ccccc2)cc1
2. CCC(CO)(CO)NC(=O)N(CCC1CCN(Cc2ccc(C)cc2)CC1)Cc1ccc(-c2ccccc2)cc1

Result:
1. 388
2. 173

* * *

target: Melanin-concentrating hormone receptor 1 (Homo sapiens, UniProt Q99705); assay: Displacement of [3H]SNAP from human MCH1 receptor expressed in HEK cells; format: cell-based, HEK293; details: read-out: Ki
READOUT: Ki (nM)
One number for each entry, in nM.

Please look at the items below and tell me Ki for each one, in order.
1. Cc1ccc(CN2CCC(CCN(Cc3ccc(-c4cccc(C#N)c4)cc3)C(=O)NC(C)(C)CO)CC2)cc1
2. Cc1ccc(CN2CCC(NC(=O)NCc3ccc(-c4cccc(C#N)c4)cc3)CC2)cc1
3. CCC(COC(C)=O)(COC(C)=O)NC(=O)N(CCC1CCN(Cc2ccc(C)cc2)CC1)Cc1ccc(-c2ccccc2OC)cc1
4. Cc1ccc(CN2CCC(NC(=O)N(CC(=O)C(C)(C)O)Cc3ccc(-c4ccc(F)cc4)cc3)CC2)cc1

Result:
1: 43; 2: 186; 3: 1200; 4: 5860

* * *

biological target: Melanin-concentrating hormone receptor 1 (Homo sapiens, UniProt Q99705); assay: Displacement of [3H]SNAP from human MCH1 receptor expressed in HEK cells; format: cell-based, HEK293; settings: read-out: Ki
Provide the reported log10 Ki of each item.
Record value = log10 of Ki given in nM.

# example entries with known answers
>>> observed_result("Cc1ccc(CN2CCC(NC(=O)N(CC(=O)C(C)(C)O)Cc3ccc(-c4cccc(C#N)c4)cc3)CC2)cc1")
3.80
>>> observed_result("CC(=O)OCC(C)(C)NC(=O)N(CCC1CCN(Cc2ccc(C)cc2)CC1)Cc1ccc(-c2ccc(F)cc2)cc1")
2.62
>>> observed_result("Cc1ccc(CN2CCC(CCN(Cc3ccc(-c4ccc(F)cc4)cc3)C(=O)NC(C)(C)CO)CC2)cc1")
1.98
>>> observed_result("CC(=O)OCC(C)(C)NC(=O)N(CCC1CCN(Cc2ccc(C)cc2)CC1)Cc1ccc(-c2ccccc2)cc1")
2.98

// next entry
Request: Notebook entry, Melanin-concentrating hormone receptor 1 (Homo sapiens, UniProt Q99705) assay: log10 Ki of "Cc1ccc(CN2CCC(CCN(Cc3ccc(-c4ccccc4)cc3)C(=O)NC(C)(C)CO)CC2)cc1" = ?
Result: 2.16

* * *

molecular target: Melanin-concentrating hormone receptor 1 (Homo sapiens, UniProt Q99705); test: Displacement of [3H]SNAP from human MCH1 receptor expressed in HEK cells; type: cell-based, HEK293; settings: read-out: Ki
Provide the reported Ki of each item.
Numbers only, in nM.

>>> observed_result("COc1ccc(-c2ccc(CN(CCC3CCN(Cc4ccc(C)cc4)CC3)C(=O)NC(C)(C)COC(C)=O)cc2)cc1")
595
>>> observed_result("CCC(COC(C)=O)(COC(C)=O)NC(=O)N(CCC1CCN(Cc2ccc(C)cc2)CC1)Cc1ccc(-c2ccc(F)cc2)cc1")
214

Please look at the items below and tell me Ki for each one, in order.
1. CCC(CO)(CO)NC(=O)N(CCC1CCN(Cc2ccc(C)cc2)CC1)Cc1ccc(-c2cccc(C#N)c2)cc1
2. COc1ccccc1-c1ccc(CNC(=O)NC2CCN(Cc3ccc(C)cc3)CC2)cc1

Result:
1: 769; 2: 425
